Assay: inhibition of RSV-induced cytopathic effect – HEp-2 cells, primary 10 µM value included (AID 2391)
Details: at 10 µM, hits give high values
In all, about 310,000 compounds went through this assay and about 410 (0.13%) were called active. Not shown: some 2% with an inconclusive outcome. The list is a sample of the results. Results with a measured potency or affinity are listed apart.
Give CPE inhibition for every item shown.
Response body: numeric value in %, unit text excluded.

[in] If you can, please state the reported CPE inhibition value of Cc1ccc(Cn2nnc3c(=O)[nH]c(C4CCCN(S(=O)(=O)c5ccccc5)C4)nc32)cc1 (centres undefined) .
[out] 13

[in] Would you kindly share the measured CPE inhibition for COC(=O)c1ccc(Cn2nnc3c(=O)[nH]c(C4CCCN(S(=O)(=O)c5ccccc5Cl)C4)nc32)cc1 (centres undefined) ?
[out] 2.61

[in] Any idea what CPE inhibition was measured for O=c1[nH]c(C2CCCN(S(=O)(=O)c3ccccc3)C2)nc2c1nnn2Cc1ccccc1F (centres undefined) ?
[out] 3.4

[in] Recorded CPE inhibition for O=c1[nH]c(C2CCCN(S(=O)(=O)c3ccccc3)C2)nc2c1nnn2Cc1ccc2c(c1)OCCO2 (centres undefined) , please?
[out] 60.4

###

Test: inhibition of RSV-induced cytopathic effect – HEp-2 cells, primary 10 µM value included (AID 2391)
Conditions: at 10 µM, hits give high values
Among all 310,000 compounds or so, about 410 (0.13%) were called active. Not shown: some 2% with an inconclusive outcome. Not all results are given here. Results with a measured potency or affinity are listed apart.
I'd be grateful if you could share measured CPE inhibition for these entries.
Only the number, expressed in %, is required.

[in] Suppose we examine the molecule O=C(NCc1ccccc1)c1ccc(NC(=O)C2CCCO2)cc1 (centres undefined) ; what CPE inhibition value has been reported?
[out] 0.29

[in] Requested read-out: CPE inhibition. Entry: `O=C(CNc1cccc2ccccc12)N/N=C/c1ccc([N+](=O)[O-])cc1`
[out] 0.72

[in] Give its CPE inhibition value. Item: CC(OC(=O)c1cccc([N+](=O)[O-])c1)C(=O)NCc1ccc2c(c1)OCO2 (centres undefined)
[out] 2.66

[in] # lookup: CPE inhibition of COc1cccc(SCC2CSc3nc4ccccc4c(=O)n32)c1 (centres undefined)
[out] 7.09

[in] Quick one: CPE inhibition of `Cc1[nH]c2ccccc2c1/C=N/Nc1ccc([N+](=O)[O-])cc1S(=O)(=O)Nc1ccc(Cl)cc1` ?
[out] 1.27

[in] Look up CPE inhibition: `COc1ccc(CNC(=O)CN(Cc2ccc(F)cc2)C(=O)CCC(=O)Nc2nccs2)cc1`
[out] 0.79

[in] Query: CPE inhibition; subject: O=C(Nc1ccccc1SCC1CSc2nc3ccccc3c(=O)n21)c1ccccc1 (centres undefined)
[out] 2.48

[in] May I ask what CPE inhibition has been recorded for CCN1CCCC1CNC(=O)Cn1ncc2c(=O)oc3ccc(C)cc3c21 (centres undefined) ?
[out] 2.08

[in] Request the reported CPE inhibition associated with `O=C(NC1CCN(S(=O)(=O)c2cccc(Cl)c2)CC1)C1CCCCC1`
[out] 1.22

[in] Please give the measured CPE inhibition for this molecule: `CCCC(=O)Nc1cccc(-c2nc3cc(C)c(C)cc3o2)c1`
[out] 1.54

[in] Consider the molecule Nc1ccccc1SCC1CSc2nc3ccccc3c(=O)n21 (centres undefined) and give its measured CPE inhibition.
[out] 2.42

[in] Looking for the measured CPE inhibition of O=c1c2ccccc2nc2n1C(CSCc1ccc(Cl)cc1Cl)CS2 (centres undefined) , can you help?
[out] 5.16

[in] Given CC(NC(=O)c1c(F)cccc1Cl)c1ccc(-n2ccnc2)cc1 (centres undefined) , state its recorded CPE inhibition.
[out] 2.43

[in] Which measured CPE inhibition value corresponds to O=c1c2ccccc2nc2n1C(CSc1ccccc1)CS2 (centres undefined) ?
[out] 1.34

[in] CPE inhibition lookup needed for `Cn1ccnc1SCC(=O)Nc1cccc(S(=O)(=O)N2CCCCC2)c1` , thanks.
[out] 5.08

[in] If you can, please state the reported CPE inhibition value of `COc1cc(NC(=S)NC(=O)c2cc(C)cc(C)c2)ccc1NC(=O)c1cccs1` .
[out] 7.54

[in] Query: CPE inhibition; subject: `Cc1cc(C)c2c(-n3cccc3)c(C(=O)NNS(=O)(=O)c3ccccc3)sc2n1`
[out] 15.3

[in] Suppose we examine the molecule `N#Cc1ccc(CSc2nnc(-c3cccnc3)n2-c2ccccc2)cc1` ; what CPE inhibition value has been reported?
[out] 0.49

[in] Suppose we examine the molecule Cc1cc(OC(C)C(=O)NCCN2CCOCC2)c2c(C)cc(=O)oc2c1 (centres undefined) ; what CPE inhibition value has been reported?
[out] 1.3

[in] Requested read-out: CPE inhibition. Entry: Cc1ccc(C2C3=C(CCCC3=O)N=C3c4ccccc4C(=O)C32)cc1 (centres undefined)
[out] 11.5

[in] Recorded CPE inhibition of `O=C(NCc1cccnc1)Nc1ccc(Br)cc1Cl` , please.
[out] 1.28

[in] Request the reported CPE inhibition associated with `Nc1ccc(-c2nc3ccccc3o2)cc1`
[out] 2.51

[in] Please look up its CPE inhibition: `COc1cc(CO)ccc1Oc1nc2ccccc2n2cnnc12`
[out] 2.05

[in] Name the reported CPE inhibition value associated with the molecule CC1CCCN(c2nc3c(c(=O)n(C)c(=O)n3C)n2CCSc2nc3ccccc3o2)C1 (centres undefined)
[out] 1.2

[in] Would you kindly share the measured CPE inhibition for O=c1c2ccccc2nc2n1C(CSc1ccc(F)cc1)CS2 (centres undefined) ?
[out] 2.75

[in] Fill in: CPE inhibition of `CCN(CC(=O)Nc1c(F)cccc1F)C(=O)c1ccc(N2CCCCC2)c([N+](=O)[O-])c1` is ___
[out] 5.38

[in] Give its CPE inhibition value. Item: `C=CCn1c(=O)c2c3c(sc2n2c(Nc4ccccc4)nnc12)CCCC3`
[out] 13.3

[in] For COCc1ccc(CN2CCCC(CO)(Cc3ccccc3C)C2)o1 (centres undefined) , what is its reported CPE inhibition?
[out] -0.94

[in] Tell me the measured CPE inhibition of CC(NC(=O)c1ccc(F)cc1Cl)C1CC2CCC1C2 (centres undefined) , please.
[out] 1.15

[in] Could you share which CPE inhibition value was measured for O=C1CCCC2=C1C(c1ccc(Cl)cc1)C1C(=O)c3ccccc3C1=N2 (centres undefined) ?
[out] 58.3

[in] Bench note: what CPE inhibition did `COc1ccc(OC)c(CN2CCN(C(=O)c3ccco3)CC2)c1` show?
[out] 0.83

[in] What CPE inhibition value was documented for this molecule, `OC1CCN(c2cc(-c3ccccc3)nc3cc(-c4ccc(F)cc4)nn23)CC1` ?
[out] 5.15

[in] Reported CPE inhibition for `CCSc1nc(O)cc(=O)n1-c1ccc(OC)cc1` : what is it?
[out] -0.46

[in] Form field: reported CPE inhibition of COc1cc([N+](=O)[O-])cc(/C=N/NC(=O)C(C)Nc2cccc3ccccc23)c1O (centres undefined)
[out] 7.79

[in] May I ask what CPE inhibition has been recorded for `Cc1sc2nc3c(C(=O)N4CCCC4)cc(C(=O)c4ccccc4O)cn3c(=O)c2c1C` ?
[out] 1.18

[in] I would be grateful if you could share the reported CPE inhibition for `Cc1ccc(-c2nc3cc(NC(=O)C(C)C)ccc3o2)cc1` .
[out] 4.38

[in] Any idea what its CPE inhibition is? The molecule is `Cc1ccccc1OCCC(=O)Nc1ccc2c(C)cc(=O)oc2c1`
[out] 1.79

[in] CPE inhibition for CC(=O)c1ccc(C(=O)NC2CCCN(Cc3ccccc3F)C2)cc1 (centres undefined) ?
[out] -0.91

[in] Any idea what its CPE inhibition is? The molecule is `Cc1cccc(NC(=O)c2ccc(COc3ccc(Cl)cc3Cl)o2)n1`
[out] -0.26

[in] Dear colleague, I am looking for the recorded CPE inhibition of the following molecule: Nc1cc(=O)[nH]c(SCC(=O)N2N=C(c3ccc(Cl)cc3)CC2c2ccco2)n1 (centres undefined)
[out] 7.31

[in] Fill in the blank: the reported CPE inhibition of `COc1ccc(N2CCN(C(=O)CCc3cc(OC)c(OC)c(OC)c3)CC2)cc1` is ____.
[out] 1.91

[in] Need CPE inhibition, item `Cc1ccc(-c2noc(CCC(=O)NCCc3ccccc3Cl)n2)cc1`
[out] 15.4

[in] CPE inhibition for `CCc1nc(SCC(=O)c2cccc([N+](=O)[O-])c2)n[nH]1` ?
[out] 1.44

[in] Would you mind telling me what CPE inhibition value was observed for `CCCC(=O)Nc1ccc(-c2nc3cc(C)ccc3o2)cc1` ?
[out] 40.7

###

Assay: inhibition of RSV-induced cytopathic effect – HEp-2 cells, primary 10 µM value included (AID 2391)
Conditions: at 10 µM, hits give high values
About 410 (0.13%) of roughly 310,000 compounds were called active. Not shown: some 2% with an inconclusive outcome. Not all results are given here. Measured potencies and affinities stand elsewhere.
Rule: CPE inhibition under 0.5% gives 0 (no), otherwise 1 (yes).

[in] Quick check, CPE inhibition >= 0.5%? `COc1ccc(-c2cc(C(=O)N3CCN(c4ncccn4)CC3)c3ccccc3n2)c(OC)c1`
[out] 0 (no)

[in] Kindly determine if CPE inhibition recorded for `COc1ccc(-c2cc(C(=O)N3CCCCC3)c3ccccc3n2)cc1` is above or exactly 0.5%.
[out] 0 (no)

[in] Given `CCOc1ccc(-c2cc(C(=O)O)c3ccccc3n2)cc1` , state whether its CPE inhibition is at least 0.5%.
[out] 1 (yes)

[in] I'd appreciate it if you could say whether O=c1cc(-c2ccc(O)c(O)c2)oc2cc(O)c(C3OC(CO)C(O)C(O)C3O)c(O)c12 (stereo not given) has CPE inhibition at least equal to 0.5%.
[out] 0 (no)

[in] Is the recorded value of CPE inhibition equal to or greater than 0.5% for this compound? CCC(C)NC(=O)c1nc2c(nnn2Cc2ccccc2Cl)c(=O)[nH]1 (stereo not given)
[out] 1 (yes)
